System: P93_24
Assay: qHTS profiling for inhibitors of Plasmodium falciparum proliferation (AID 504749); note: nearly all actives have a fitted effect of over 60% in size
Details: P. falciparum in erythrocytes, SYBR Green DNA, 72 h; series mostly up to 28.7 µM
Records with an inconclusive call do not appear. The source made the active and inactive calls. Calls come from the whole dose curve; as a rule, active = well fitted inhibition curve with a large enough effect; inconclusive = small, poorly fitted or top-dose-only effect; inactive = flat fitted curve, though single readings scatter.
Parameter call: string, one of 1.0 = active, 0.0 = inactive

# count of solved cases: 2
compound: CC(/C=C1\SC(=S)N(CC(=O)O)C1=O)=C\c1ccccc1
category: 0.0
--
compound: C[C@@H]1[C@H](O)[C@@H](C)/C=C/C=C/C=C/C=C/C=C/C=C/C=C/[C@H](O[C@@H]2O[C@H](C)[C@@H](O)[C@H](N)[C@@H]2O)C[C@@H]2O[C@](O)(C[C@@H](O)C[C@@H](O)[C@H](O)CC[C@@H](O)C[C@@H](O)CC(=O)O[C@H]1C)C[C@H](O)[C@H]2C(=O)O
category: 0.0

In the following, a different compound is considered.
In this assay, the call recorded for CN1C[C@H](C(=O)N[C@]2(C)O[C@@]3(O)C4CCCN4C(=O)[C@H](Cc4ccccc4)N3C2=O)C[C@@H]2c3cccc4[nH]cc(c34)C[C@H]21 (stereo partly drawn) was what?
1.0
